Values from patent US20100087432A1

- Study system: human CRTh2 (Homo sapiens)
- Sequence (Q9Y5Y4 whole entry): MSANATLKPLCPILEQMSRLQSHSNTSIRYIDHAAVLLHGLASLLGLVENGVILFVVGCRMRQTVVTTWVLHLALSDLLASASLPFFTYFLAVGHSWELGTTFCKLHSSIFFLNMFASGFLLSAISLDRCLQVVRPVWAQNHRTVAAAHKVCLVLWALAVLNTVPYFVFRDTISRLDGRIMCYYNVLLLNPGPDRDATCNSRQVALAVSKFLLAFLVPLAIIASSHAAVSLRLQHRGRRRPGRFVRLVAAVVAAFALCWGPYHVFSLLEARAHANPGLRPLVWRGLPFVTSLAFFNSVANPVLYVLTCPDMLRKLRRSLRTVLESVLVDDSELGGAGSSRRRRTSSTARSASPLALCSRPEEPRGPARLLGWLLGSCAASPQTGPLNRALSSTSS
- Measurement protocol: CRTH2 cAMP functional assay in CHO.K1-CRTh2 cells
- Conditions used: inhibition of PGD2-mediated attenuation of forskolin-induced cAMP accumulation in CHO.K1-CRTh2 cells
Would you kindly list IC50 for each of these compounds?
Give bare numbers, in nM.

Answered cases to consult:
> print(dat)
                        structure.as.smiles  result
1  N#Cc1cn(CC(=O)O)cc1-c1cc(C(F)(F)F)cc(Cl)c1F      25
2      N#Cc1cn(CC(=O)O)cc1-c1cc(Cl)cc(Cl)c1      57
3          N#Cc1cn(CC(=O)O)cc1-c1cccc(Cl)c1     255
4  N#Cc1cn(CC(=O)O)cc1-c1cc(C(F)(F)F)cc(S(=O)(=O)N2CCCC2)c1      17

Each compound below has a recorded value; state its IC50.
1. N#Cc1cn(CC(=O)O)cc1-c1cccc2c1OC(F)(F)O2
2. CCCCNS(=O)(=O)c1cc(-c2cn(CC(=O)O)cc2C#N)cc(C(F)(F)F)c1
3. N#Cc1cn(CC(=O)O)cc1-c1cc(C(F)(F)F)cc(C(F)(F)F)c1
4. N#Cc1cn(CC(=O)O)cc1-c1cccc(C(F)(F)F)c1
5. N#Cc1cn(CC(=O)O)cc1-c1cc(C(F)(F)F)cc(S(=O)(=O)NC2CCC2)c1

1: 846; 2: 16; 3: 28; 4: 69; 5: 9

Each compound below has a recorded value; state its IC50.
1. N#Cc1cn(CC(=O)O)cc1-c1cc(C(F)(F)F)ccc1C(F)(F)F
2. N#Cc1cn(CC(=O)O)cc1-c1cc(C(F)(F)F)ccc1Cl
3. N#Cc1cn(CC(=O)O)cc1-c1cc(C(F)(F)F)cc(S(=O)(=O)N2CCCCC2)c1

[147, 161, 12]
